target: integrin α5β1 (UniProt P08648 42-1049; P05556 21-798)
Sequence (P08648 42-1049, chain 1 of 2): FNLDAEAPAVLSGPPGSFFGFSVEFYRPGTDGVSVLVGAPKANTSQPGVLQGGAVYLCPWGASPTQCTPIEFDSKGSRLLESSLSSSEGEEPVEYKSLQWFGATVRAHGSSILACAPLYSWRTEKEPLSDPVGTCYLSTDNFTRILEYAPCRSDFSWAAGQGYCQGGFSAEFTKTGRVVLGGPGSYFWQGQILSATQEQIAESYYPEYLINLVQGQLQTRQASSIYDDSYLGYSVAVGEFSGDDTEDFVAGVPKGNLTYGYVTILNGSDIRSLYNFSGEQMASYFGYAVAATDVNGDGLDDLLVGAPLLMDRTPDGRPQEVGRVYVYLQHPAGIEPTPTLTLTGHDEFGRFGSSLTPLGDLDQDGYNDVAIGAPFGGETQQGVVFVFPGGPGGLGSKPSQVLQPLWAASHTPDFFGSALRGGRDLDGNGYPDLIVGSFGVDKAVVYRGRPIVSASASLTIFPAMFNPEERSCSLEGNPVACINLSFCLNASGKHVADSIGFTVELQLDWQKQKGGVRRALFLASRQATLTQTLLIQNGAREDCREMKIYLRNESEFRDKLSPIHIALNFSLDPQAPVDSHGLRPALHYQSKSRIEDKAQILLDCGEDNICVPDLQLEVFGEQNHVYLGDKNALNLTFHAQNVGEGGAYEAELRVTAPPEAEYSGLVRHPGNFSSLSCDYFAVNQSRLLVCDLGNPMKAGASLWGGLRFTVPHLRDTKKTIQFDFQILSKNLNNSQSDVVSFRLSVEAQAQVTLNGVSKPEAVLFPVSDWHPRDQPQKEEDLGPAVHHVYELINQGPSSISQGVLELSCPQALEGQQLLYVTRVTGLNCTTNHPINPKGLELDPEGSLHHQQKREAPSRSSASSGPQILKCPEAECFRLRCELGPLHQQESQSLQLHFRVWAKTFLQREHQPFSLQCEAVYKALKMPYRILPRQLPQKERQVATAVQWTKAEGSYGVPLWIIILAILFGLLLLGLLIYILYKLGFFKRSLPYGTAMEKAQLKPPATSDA
Sequence (P05556 21-798, chain 2 of 2): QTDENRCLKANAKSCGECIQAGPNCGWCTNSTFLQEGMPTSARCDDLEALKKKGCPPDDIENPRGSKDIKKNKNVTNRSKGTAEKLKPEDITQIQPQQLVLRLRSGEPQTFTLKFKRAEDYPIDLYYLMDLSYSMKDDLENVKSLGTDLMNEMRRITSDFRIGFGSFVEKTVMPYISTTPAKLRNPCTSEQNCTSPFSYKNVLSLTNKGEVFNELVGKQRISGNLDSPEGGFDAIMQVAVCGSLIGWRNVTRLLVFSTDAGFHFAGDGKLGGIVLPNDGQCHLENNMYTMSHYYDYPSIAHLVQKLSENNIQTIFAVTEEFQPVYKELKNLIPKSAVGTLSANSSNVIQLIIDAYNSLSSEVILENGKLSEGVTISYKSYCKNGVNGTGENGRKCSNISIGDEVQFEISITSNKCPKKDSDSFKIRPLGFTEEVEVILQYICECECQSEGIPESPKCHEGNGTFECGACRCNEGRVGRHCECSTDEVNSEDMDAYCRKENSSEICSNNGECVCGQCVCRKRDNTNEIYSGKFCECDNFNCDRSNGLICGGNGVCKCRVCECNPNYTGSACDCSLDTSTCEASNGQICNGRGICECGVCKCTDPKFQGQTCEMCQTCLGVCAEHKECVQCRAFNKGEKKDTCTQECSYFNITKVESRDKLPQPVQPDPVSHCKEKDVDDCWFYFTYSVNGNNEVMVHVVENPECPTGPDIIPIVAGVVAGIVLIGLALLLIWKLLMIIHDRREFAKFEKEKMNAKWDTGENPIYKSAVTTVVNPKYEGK
protocolSummary: cell-based or functional assay
endpointLabel: IC50, cell adhesion assay

query: # lookup: IC50, cell adhesion assay of FNIII 10 C-X7-C (SEQ ID NO: 6, VCPRGDMPDCSK) (designed binder) HHHHHHVSDVPRDLEVVAATPTSLLISWDAPAVTVRYYRITYGETGGNSPVQEFTVPGSKSTATISGLKPGVDYTITVYAVCPRGDMPDCSKPISINYRT
result: > 73.2 µM

query: # lookup: IC50, cell adhesion assay of FNIII 10 C-X7-C (SEQ ID NO: 8, VCPRGDWNECSK) (designed binder, Engineered intradomain disulfide bond Cys1491-Cys1499; exact N-terminus uncertain) HHHHHHVSDVPRDLEVVAATPTSLLISWDAPAVTVRYYRITYGETGGNSPVQEFTVPGSKSTATISGLKPGVDYTITVYAVCPRGDWNECSKPISINYRT
result: > 4.49 µM

query: # lookup: IC50, cell adhesion assay of FNIII 10 C-X7-C (SEQ ID NO: 10, VCARGDNPDCSK) (designed binder) HHHHHHVSDVPRDLEVVAATPTSLLISWDAPAVTVRYYRITYGETGGNSPVQEFTVPGSKSTATISGLKPGVDYTITVYAVCARGDNPDCSKPISINYRT
result: > 4.55 µM

query: # lookup: IC50, cell adhesion assay of FNIII 10 variant (SEQ ID NO: 48, VTPRGDMPDSSK) (designed binder, also called FNIII 10 (PRGDMPD) protein; FNIII 10 PRGDMPD variant) HHHHHHVSDVPRDLEVVAATPTSLLISWDAPAVTVRYYRITYGETGGNSPVQEFTVPGSKSTATISGLKPGVDYTITVYAVTPRGDMPDSSKPISINYRT
result: > 6.8 µM

query: # lookup: IC50, cell adhesion assay of Control FNIII 10 mutant (SEQ ID NO: 50, VTPRGDWNEGSK) (designed binder, exact N-terminus uncertain; also called FNIII 10 variant) HHHHHHVSDVPRDLEVVAATPTSLLISWDAPAVTVRYYRITYGETGGNSPVQEFTVPGSKSTATISGLKPGVDYTITVYAVTPRGDWNEGSKPISINYRT
result: > 4.51 µM

Attribution: patent US20150218251A1
